SUBJECT OF TEST: IMP-1 (Serratia marcescens, UniProt P52699)
Construct: VIM-1; VIM-2
Sequence (P52699 19-246, looked up, species assumed): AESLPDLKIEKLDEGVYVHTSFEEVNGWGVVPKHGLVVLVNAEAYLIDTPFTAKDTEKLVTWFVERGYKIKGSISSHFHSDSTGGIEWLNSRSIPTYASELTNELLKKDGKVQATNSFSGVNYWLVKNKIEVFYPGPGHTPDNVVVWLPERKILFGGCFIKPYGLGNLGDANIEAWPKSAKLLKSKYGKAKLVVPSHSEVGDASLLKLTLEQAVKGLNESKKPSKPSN
EXPERIMENT DESCRIPTION: In vitro enzyme inhibition assay (imipenem hydrolysis, UV 299 nm)
Assay type: biochemical
CONDITION CONTEXT: purified enzyme, 10mM HEPES pH 7.5, Imipenem 300µM; mean Ki from IC50 by Cheng-Prusoff; read-out: Ki (µM) IMP-1
QUANTITY KIND: Ki

For record "CSc1n(CC(=O)Nc2ccc(S(=O)(=O)Nc3scnc3C(=O)[O-])cc2F)cc[n+]1C" the listed Ki is 1 to 8 µM

---

Measured Ki values are reported for all entries that follow.
SUBJECT OF TEST: VIM-1 (Pseudomonas aeruginosa, UniProt A0A0F7KYQ8)
Construct: VIM-1; VIM-2; IMP-1)
EXPERIMENT DESCRIPTION: In vitro enzyme inhibition assay (imipenem hydrolysis, UV 299 nm)
Format: biochemical
CONDITION CONTEXT: read-out: Ki (µM) VIM-1; purified enzyme, 10mM HEPES pH 7.5, Imipenem 300µM; mean Ki from IC50 by Cheng-Prusoff

See these solved cases before continuing.
{"RECORD SMILES": "CN(C)CC[n+]1ccn(CC(=O)Nc2ccc(S(=O)(=O)Nc3scnc3C(=O)[O-])cc2F)c1", "SUBJECT OF TEST": "VIM-1 (Pseudomonas aeruginosa, UniProt A0A0F7KYQ8)", "Ki": "< 0.2 µM"}
{"RECORD SMILES": "C[n+]1cn(CC(=O)Nc2ccc(S(=O)(=O)Nc3scnc3C(=O)[O-])cc2F)cn1", "SUBJECT OF TEST": "VIM-1 (Pseudomonas aeruginosa, UniProt A0A0F7KYQ8)", "Ki": "0.2 to 0.5 µM"}
{"RECORD SMILES": "O=C(Cn1cc[n+]2c1COCC2)Nc1ccc(S(=O)(=O)Nc2scnc2C(=O)[O-])cc1F", "SUBJECT OF TEST": "VIM-1 (Pseudomonas aeruginosa, UniProt A0A0F7KYQ8)", "Ki": "0.5 to 0.8 µM"}

For record "C[n+]1cccn1CC(=O)Nc1ccc(S(=O)(=O)Nc2scnc2C(=O)[O-])cc1F" the listed Ki is 0.2 to 0.5 µM

---

SUBJECT OF TEST: NDM-1 (Klebsiella pneumoniae, UniProt C7C422)
Construct: VIM-1; VIM-2
Sequence (C7C422 29-270, looked up): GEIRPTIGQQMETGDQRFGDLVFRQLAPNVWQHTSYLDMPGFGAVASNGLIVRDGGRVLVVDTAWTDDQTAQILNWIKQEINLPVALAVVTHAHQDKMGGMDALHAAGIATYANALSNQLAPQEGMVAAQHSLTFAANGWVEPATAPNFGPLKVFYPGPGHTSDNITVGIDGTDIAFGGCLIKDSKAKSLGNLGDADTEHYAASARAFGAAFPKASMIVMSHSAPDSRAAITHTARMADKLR
EXPERIMENT DESCRIPTION: In vitro enzyme inhibition assay (imipenem hydrolysis, UV 299 nm)
Type: biochemical
CONDITION CONTEXT: read-out: Ki (µM) NDM-1; purified enzyme, 10mM HEPES pH 7.5, Imipenem 300µM; mean Ki from IC50 by Cheng-Prusoff
QUANTITY KIND: Ki

{"RECORD SMILES": "C[n+]1ccn(CC(=O)Nc2ccc(S(=O)(=O)Nc3scnc3C(=O)[O-])cc2F)c1N", "SUBJECT OF TEST": "NDM-1 (Klebsiella pneumoniae, UniProt C7C422)", "RESULT": "0.05 to 0.2 µM"}
{"RECORD SMILES": "C[n+]1c(N)ccn1CC(=O)Nc1ccc(S(=O)(=O)Nc2scnc2C(=O)[O-])cc1F", "SUBJECT OF TEST": "NDM-1 (Klebsiella pneumoniae, UniProt C7C422)", "RESULT": "0.05 to 0.2 µM"}
{"RECORD SMILES": "Cc1cn(CC(=O)Nc2ccc(S(=O)(=O)Nc3scnc3C(=O)[O-])cc2F)c[n+]1C", "SUBJECT OF TEST": "NDM-1 (Klebsiella pneumoniae, UniProt C7C422)", "RESULT": "0.2 to 0.4 µM"}
{"RECORD SMILES": "Cc1n(CC(=O)Nc2ccc(S(=O)(=O)Nc3scnc3C(=O)[O-])cc2F)cc[n+]1C", "SUBJECT OF TEST": "NDM-1 (Klebsiella pneumoniae, UniProt C7C422)", "RESULT": "0.05 to 0.2 µM"}
{"RECORD SMILES": "C[n+]1ccn(CC(=O)Nc2c(F)cc(S(=O)(=O)Nc3scnc3C(=O)[O-])cc2F)c1", "SUBJECT OF TEST": "NDM-1 (Klebsiella pneumoniae, UniProt C7C422)", "RESULT": "0.05 to 0.2 µM"}
{"RECORD SMILES": "N#Cc1cc(S(=O)(=O)Nc2scnc2C(=O)[O-])ccc1NC(=O)Cn1cc[n+](CCN)c1", "SUBJECT OF TEST": "NDM-1 (Klebsiella pneumoniae, UniProt C7C422)", "RESULT": "0.05 to 0.2 µM"}
{"RECORD SMILES": "C[n+]1cnn(CC(=O)Nc2ccc(S(=O)(=O)Nc3scnc3C(=O)[O-])cc2F)c1", "SUBJECT OF TEST": "NDM-1 (Klebsiella pneumoniae, UniProt C7C422)", "RESULT": "0.05 to 0.2 µM"}
{"RECORD SMILES": "O=C(Cn1cc[n+]2c1COCC2)Nc1ccc(S(=O)(=O)Nc2scnc2C(=O)[O-])cc1F", "SUBJECT OF TEST": "NDM-1 (Klebsiella pneumoniae, UniProt C7C422)", "RESULT": "0.05 to 0.2 µM"}

Now consider a different compound.
For record "C[n+]1ccn(CC(=O)Nc2ccc(S(=O)(=O)Nc3scnc3C(=O)[O-])cc2F)n1" the listed Ki is < 0.05 µM

---

SUBJECT OF TEST: VIM-1 (Pseudomonas aeruginosa)
Construct: VIM-1; VIM-2; IMP-1)
EXPERIMENT DESCRIPTION: In vitro enzyme inhibition assay (imipenem hydrolysis, UV 299 nm)
Type: biochemical
CONDITION CONTEXT: read-out: Ki (µM) VIM-1; purified enzyme, 10mM HEPES pH 7.5, Imipenem 300µM; mean Ki from IC50 by Cheng-Prusoff
QUANTITY KIND: Ki

{"RECORD SMILES": "C[n+]1cnn(CC(=O)Nc2ccc(S(=O)(=O)Nc3scnc3C(=O)[O-])cc2F)c1", "Ki": "0.2 to 0.5 µM"}

For record "N#Cc1cc(S(=O)(=O)Nc2scnc2C(=O)[O-])ccc1NC(=O)Cn1cc[n+](CCNC(=N)N)c1" the listed Ki is < 0.2 µM

For record "N=C(N)NCC[n+]1ccn(CC(=O)Nc2ccc(S(=O)(=O)Nc3scnc3C(=O)[O-])cc2F)c1" the listed Ki is < 0.2 µM
